molecular target: human GR (full-length) (Homo sapiens); construct: expression vectors encoding full-length steroid receptors: pcDNA3-hAR and pcDNA3-hGR; host or cells: U2OS; assay: U2OS-GR/MMTV luciferase reporter cell line (full-length receptor); assay type: cell-based; conditions: read-out: Log EC50 (converted)
Sequence (P04150 whole entry): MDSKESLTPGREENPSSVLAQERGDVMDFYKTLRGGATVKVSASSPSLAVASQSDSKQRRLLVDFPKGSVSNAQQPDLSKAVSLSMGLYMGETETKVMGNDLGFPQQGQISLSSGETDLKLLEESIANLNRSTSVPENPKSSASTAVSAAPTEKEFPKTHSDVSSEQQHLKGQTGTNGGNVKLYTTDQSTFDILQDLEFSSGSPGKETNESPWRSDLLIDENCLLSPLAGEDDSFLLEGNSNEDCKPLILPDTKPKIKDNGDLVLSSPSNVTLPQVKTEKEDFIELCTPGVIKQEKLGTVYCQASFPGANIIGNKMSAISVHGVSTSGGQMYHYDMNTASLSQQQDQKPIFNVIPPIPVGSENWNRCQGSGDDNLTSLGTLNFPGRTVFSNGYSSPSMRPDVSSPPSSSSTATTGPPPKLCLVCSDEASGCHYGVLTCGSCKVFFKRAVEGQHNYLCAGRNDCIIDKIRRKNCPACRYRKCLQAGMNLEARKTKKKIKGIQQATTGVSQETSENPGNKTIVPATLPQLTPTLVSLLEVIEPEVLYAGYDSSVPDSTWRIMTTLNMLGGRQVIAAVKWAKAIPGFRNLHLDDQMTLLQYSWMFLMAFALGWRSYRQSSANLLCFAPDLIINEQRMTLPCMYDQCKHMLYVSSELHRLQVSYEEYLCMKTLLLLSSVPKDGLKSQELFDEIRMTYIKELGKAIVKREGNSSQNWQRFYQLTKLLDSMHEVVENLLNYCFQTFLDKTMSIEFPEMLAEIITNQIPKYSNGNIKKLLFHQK
Counter-ions that a name gives are not always drawn.
Give EC50 for every item shown.

Answer for every listed entry: what is its EC50? The entries follow.
1. CC/C(=C(\c1ccccc1)c1ccc(OCCN(C)C)cc1)c1ccccc1 [Tamoxifen citrate, tamoxifen citrate]
2. C[C@]12C[C@H](O)[C@H]3[C@@H](CCC4=CC(=O)CC[C@@]43C)[C@@H]1CC[C@@H]2C(=O)CO
3. CC(=O)C1(O)CCC2C3CCC4=CC(=O)CCC4(C)C3CCC21C (stereo not drawn) [17α-hydroxyprogesterone]
4. C#C[C@]1(O)CC[C@H]2[C@@H]3CCC4=Cc5oncc5C[C@]4(C)[C@H]3CC[C@@]21C
5. CCC(=O)[C@@]1(C)CC[C@H]2[C@@H]3CCC4=CC(=O)CCC4=C3CC[C@@]21C [Promegestone (R5020), promegestone]
6. C[C@]12C=CC(=O)C=C1CC[C@H]1[C@@H]3C[C@@H](O)[C@](O)(C(=O)CO)[C@@]3(C)C[C@H](O)[C@@]12F

Outgoing:
["> 10000 nM", "26.9 nM", "> 10000 nM", "> 10000 nM", "> 10000 nM", "12.9 nM"]

Answer for every listed entry: what is its EC50? The entries follow.
1. CCCc1c(-c2ccc(O)cc2)nn(-c2ccc(O)cc2)c1-c1ccc(O)cc1
2. C[C@]12CCC(=O)C=C1CC[C@@H]1[C@@H]2[C@@H](O)C[C@]2(C=O)[C@@H](C(=O)CO)CC[C@@H]12

Outgoing:
> 10000 nM
209 nM

---

molecular target: PR-LBD fused to Gal4-DBD (Homo sapiens); construct: PR-LBD region was PCR amplified using the following primer combination; host or cells: U2OS; assay: U2OS-PR-LBD/9xGal4UAS luciferase reporter cell line; assay type: cell-based; settings: read-out: Log EC50 (converted)
Sequence (P06401 679-913 limits assumed): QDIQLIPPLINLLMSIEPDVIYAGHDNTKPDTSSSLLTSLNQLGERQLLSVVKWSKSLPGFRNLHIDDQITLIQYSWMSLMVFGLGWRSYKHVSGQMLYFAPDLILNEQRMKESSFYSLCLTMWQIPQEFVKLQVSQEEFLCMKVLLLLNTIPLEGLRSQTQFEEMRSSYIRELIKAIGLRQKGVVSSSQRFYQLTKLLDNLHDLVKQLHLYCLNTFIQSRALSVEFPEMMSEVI
Give EC50 for every item shown.

Answered cases to consult:
Incoming: Endpoint output: EC50 of C[C@]12CCC(=O)C=C1CC[C@@H]1[C@@H]2[C@@H](O)C[C@@]2(C)[C@H]1CC[C@]2(O)C(=O)CO . Value?
Outgoing: 6.17 µM

Incoming: Endpoint output: EC50 of CC(C)C(=O)Nc1ccc([N+](=O)[O-])c(C(F)(F)F)c1 [Flutamide, flutamide] . Value?
Outgoing: > 10 µM

Incoming: Endpoint output: EC50 of C[C@]12C=CC(=O)C=C1CC[C@H]1[C@@H]3C[C@@H](O)[C@](O)(C(=O)CO)[C@@]3(C)C[C@H](O)[C@@]12F . Value?
Outgoing: 0.0589 µM

Incoming: Endpoint output: EC50 of C[C@@H]1C[C@H]2[C@@H]3CCC4=CC(=O)C=C[C@]4(C)[C@@]3(F)[C@@H](O)C[C@]2(C)[C@@]1(O)C(=O)CO . Value?
Outgoing: 4.79 µM

Incoming: Endpoint output: EC50 of C[C@]12CCC(=O)C=C1CC[C@@H]1[C@@H]2[C@@H](O)C[C@]2(C=O)[C@@H](C(=O)CO)CC[C@@H]12 . Value?
Outgoing: 1.12 µM

API: the following record is the query input.
Incoming: Endpoint output: EC50 of CC1(C)NC(=O)N(c2ccc([N+](=O)[O-])c(C(F)(F)F)c2)C1=O [Nilutamide, nilutamide] . Value?
Outgoing: > 10 µM

Data provenance is paper PMC3234597.
